The following binders are listed with their measured binding signal values.
Target: T1, UNK ZnF1-3 (human, UniProt Q9C0B0 31-174)
T1 sequence: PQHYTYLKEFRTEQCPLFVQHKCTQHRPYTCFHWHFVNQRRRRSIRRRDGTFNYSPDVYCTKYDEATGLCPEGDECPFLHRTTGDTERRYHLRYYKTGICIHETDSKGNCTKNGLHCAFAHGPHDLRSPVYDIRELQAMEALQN
Assay: nsRBNS (natural sequence RNA bind-n-seq); RBNS binding buffer (assumed for nsRBNS): 25 mM Tris pH 7.5, 150 mM KCl, 3 mM MgCl2, 0.01% Triton X-100, 500 ug/ml BSA, 20 U/ml SUPERase-In, 4 C; UNK is unkempt and MSI1 is Musashi-1; names of the RNAs are library labels; protein concentration not given here; high values mean tight binding
Over roughly 24,000 sequences, “enrichment r” has its median near 0.99; the highest 2% begin near 3.7. The list comes from a sample in which the highest values are over-represented; it also holds close analogues and randomly drawn sequences.

{"BINDER": "chr17:60770872:60770873:+_ENSG00000011028_ENST00000303375|hu_hu|hu_hu_hu_mus_True|68_88 (ssRNA) RNA: GGGAGUUCUACAGUCCGACGAUCUCUUUAAAAAAAAAAAAAAAAAGUUUAAAAACAAUAGCACAUUAUUUAAAAAAAGAACUACAAUAGAGGGUCCGCUUUGAGUUUUUGUUCACAUCGUCCUGCACUGGGACACGGGGACUGCAACAGAGGAUUGAGCAUCA", "binding signal": "6.65 enrichment R"}
{"BINDER": "chr17:60770872:60770873:+_ENSG00000011028_ENST00000303375|hu_hu|hu_hu_hu_mus_True|68_78 (ssRNA) RNA: GGGAGUUCUACAGUCCGACGAUCUCUUUAAAAAAAAAAAAAAAAAGACAAACAAUAAUAAUGGCACAUUUAAAAAAAGAACUACAAUAGAGGGUCCGCUUUGAGUUUUUGUUCACAUCGUCCUGCACUGGGACACGGGGACUGCAACAGAGGAUUGAGCAUCA", "binding signal": "5.39 enrichment R"}
